Data credit: PubChem BioAssay AID2060343

# System: 138582-337-R-J1-PDC spheroids with HUVEC/MSC, viability;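 further: spheroids exposed to compounds for seven days; 100% = DMSO vehicle control viability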
# assay-notes: Anticancer human tumor 138582-337-R-J1-PDC patient-derived Merkel cell tumor cell line growth inhibition [IpAb]
# condition-label: second compound 0.1 µM; first compound 1 µM; stronger effect = lower value
# Procedure: Combinatorial screen of targeted agents with ipatasertib and abemaciclib in multi-cell type tumor spheroids […] Compounds. […] If the clinical Cmax for an agent had not been determined, the highest concentration tested was 10 microM. NCI60 Cell Culture. […] The optimal seeding densities for each of the cell lines at each time point assessed were determined prior to performing the concentration response studies. […]
Could you please report measured viability, T/C for the items listed next?

Below are some compounds; for each one, tell me its viability, T/C.
1. Cc1nc(NC(=O)N2CCCC2C(N)=O)sc1-c1ccnc(C(C)(C)C(F)(F)F)c1 (stereo unspecified) + CCN1CCN(Cc2ccc(Nc3ncc(F)c(-c4cc(F)c5nc(C)n(C(C)C)c5c4)n3)nc2)CC1
2. Cn1ncc(Cl)c1-c1cc(C(=O)NC(CN)Cc2cccc(F)c2)sc1Cl (stereo unspecified) + CC(C)NCC(C(=O)N1CCN(c2ncnc3c2C(C)CC3O)CC1)c1ccc(Cl)cc1
3. C=CCn1c(=O)c2cnc(Nc3ccc(N4CCN(C)CC4)cc3)nc2n1-c1cccc(C(C)(C)O)n1 + CCN1CCN(Cc2ccc(Nc3ncc(F)c(-c4cc(F)c5nc(C)n(C(C)C)c5c4)n3)nc2)CC1
4. CC1(C)CCC(CN2CCN(c3ccc(C(=O)NS(=O)(=O)c4ccc(NCC5CCOCC5)c([N+](=O)[O-])c4)c(Oc4cnc5[nH]ccc5c4)c3)CC2)=C(c2ccc(Cl)cc2)C1 + CCN1CCN(Cc2ccc(Nc3ncc(F)c(-c4cc(F)c5nc(C)n(C(C)C)c5c4)n3)nc2)CC1
5. C=CC(=O)N1CCN(c2nc(=O)n(-c3c(C)ccnc3C(C)C)c3nc(-c4c(O)cccc4F)c(F)cc23)C(C)C1 (stereo unspecified) + CC(C)NCC(C(=O)N1CCN(c2ncnc3c2C(C)CC3O)CC1)c1ccc(Cl)cc1
6. Cc1nc(NC(=O)N2CCCC2C(N)=O)sc1-c1ccnc(C(C)(C)C(F)(F)F)c1 (stereo unspecified) + CC(C)NCC(C(=O)N1CCN(c2ncnc3c2C(C)CC3O)CC1)c1ccc(Cl)cc1

Result:
56.4%
61.4%
90.3%
80%
101%
52.8%
